Assignment: determine reported IC50 for the given molecules.
- testedSystem: Substance-P receptor (Homo sapiens, UniProt P25103)
- Sequence (P25103 whole entry): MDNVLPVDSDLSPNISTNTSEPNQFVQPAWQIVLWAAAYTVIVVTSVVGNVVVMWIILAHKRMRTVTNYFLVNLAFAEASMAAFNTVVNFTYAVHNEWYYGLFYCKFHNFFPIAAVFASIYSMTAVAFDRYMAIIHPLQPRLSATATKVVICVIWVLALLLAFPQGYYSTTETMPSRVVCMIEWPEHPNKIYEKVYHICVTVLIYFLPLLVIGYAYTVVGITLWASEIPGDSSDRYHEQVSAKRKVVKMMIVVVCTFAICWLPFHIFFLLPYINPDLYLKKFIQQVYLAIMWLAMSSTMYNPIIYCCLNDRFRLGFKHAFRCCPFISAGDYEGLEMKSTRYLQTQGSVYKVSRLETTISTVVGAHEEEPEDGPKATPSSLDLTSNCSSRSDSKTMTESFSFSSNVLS
- procedureDetails: Displacement of [125I]-labeled SP from human Tachykinin receptor 1 expressed in CHO cells

- molecule: "FC(F)(F)c1cc(CO[C@@H]2OCCN[C@H]2c2ccccc2)cc(C(F)(F)F)c1 (stereo in doubt; 12)"
  IC50: "376 nM"
- molecule: "FC(F)(F)c1cc(CO[C@@H]2OCCN[C@H]2c2ccccc2)cc(C(F)(F)F)c1 (stereo in doubt; 22)"
  IC50: "19 nM"
- molecule: "O=c1[nH]nc(CN2CCO[C@H](OCc3cc(C(F)(F)F)cc(C(F)(F)F)c3)[C@@H]2c2ccccc2)[nH]1"
  IC50: "0.09 nM"
- molecule: "COC(=O)CN1CCO[C@H](OCc2cc(C(F)(F)F)cc(C(F)(F)F)c2)[C@@H]1c1ccccc1"
  IC50: "1.6 nM"
- molecule: "FC(F)(F)c1cc(CO[C@@H]2OCCN[C@@H]2c2ccccc2)cc(C(F)(F)F)c1 (stereo in doubt; 21)"
  IC50: "116 nM"

For every item below, please supply its IC50.
1. FC(F)(F)c1cc(CO[C@@H]2OCCN[C@@H]2c2ccccc2)cc(C(F)(F)F)c1 (stereo in doubt; 14)
2. FC(F)(F)c1cc(CO[C@H]2OCCN[C@@H]2c2ccccc2)cc(C(F)(F)F)c1 (stereo in doubt; 20)

59 nM
21 nM
